Attribution: the supplement of paper PMC10567573

B1: TRIM39 (parent)
chain: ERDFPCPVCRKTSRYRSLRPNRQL

Variants of: B1
Protocol notes: protein stability index of a GFP-peptide fusion (GPS, HEK-293T) (PSI 1-6); higher = more stable;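 also: lentivirally expressed fusions sorted by FACS into six bins by GFP to DsRed ratio, PSI derived from sequencing read proportions per bin multiplied by bin number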
Stated conditions: c terminus: a fixed tail appended
Dear colleague, classification is by protein stability index, with ranges listed here: lower range (below 2), middle range (2 to below 3), upper range (3 or more)

Consider `ERDFPCPVCRKTDRYRSLRPNRQL` . To which protein stability index class does it belong?
middle range

Consider `ERDFPCPVGRKTSRYRSLRPNRQL` . To which protein stability index class does it belong?
upper range

Consider `ERDFPCPVCRKTSRTRSLRPNRQL` . To which protein stability index class does it belong?
lower range

Consider `ERDFPCPVCRKTSRYRSLRPNRTL` . To which protein stability index class does it belong?
middle range

Consider `ERDFPCPVCRGTSRYRSLRPNRQL` . To which protein stability index class does it belong?
lower range

Consider `ERDFPCPVKRKTSRYRSLRPNRQL` . To which protein stability index class does it belong?
upper range

Consider `FRDFPCPVCRKTSRYRSLRPNRQL` . To which protein stability index class does it belong?
middle range

Consider `ERDFPCPVCRKTSRYRVLRPNRQL` . To which protein stability index class does it belong?
middle range

Consider `ERDFPCPVCRRTSRYRSLRPNRQL` . To which protein stability index class does it belong?
lower range

Consider `ERDFPCPVCRWTSRYRSLRPNRQL` . To which protein stability index class does it belong?
middle range
